Test system: A549-GM130-SQSTM1
measurement-notes: phenotypically active (imaging signature differs from DMSO and reproducible) at any of 0.3-9 uM (binary (1 = active, 0 = inactive)); higher = active
condition-details: treatment time: 24 h
property-name: phenotypically active

[[record]]
molecule = "O=C(Nc1ccccc1)N1CCC(Cc2cnc3ccccc3c2)CC1"
tested_target = "A549-GM130-SQSTM1"
property_name = "phenotypically active"
value = 0

[[record]]
molecule = "CC[C@]12CCCN3CCc4c(n(c5ccccc45)C(=O)C1)[C@@H]32 [Eburnamonine (-)]"
tested_target = "A549-GM130-SQSTM1"
property_name = "phenotypically active"
value = 1

[[record]]
molecule = "C/C=C1\\NC(=O)[C@H]2CSSCCC=C[C@H](CC(=O)N[C@H](C(C)C)C(=O)N2)OC(=O)[C@H](C(C)C)NC1=O"
tested_target = "A549-GM130-SQSTM1"
property_name = "phenotypically active"
value = 1

[[record]]
molecule = "C[C@@H]1C[C@H]2[C@@H]3C[C@H](F)C4=CC(=O)C=C[C@]4(C)[C@@]3(F)[C@@H](O)C[C@]2(C)[C@@]1(O)C(=O)COC(=O)C(C)(C)C [flumethasone pivalate]"
tested_target = "A549-GM130-SQSTM1"
property_name = "phenotypically active"
value = 1

[[record]]
molecule = "CCC1(C)OC(=O)N(C)C1=O (stereo not drawn)"
tested_target = "A549-GM130-SQSTM1"
property_name = "phenotypically active"
value = 0

[[record]]
molecule = "CC(C)(C)NCC(O)c1ccc(O)c(CO)c1 (stereo not drawn)"
tested_target = "A549-GM130-SQSTM1"
property_name = "phenotypically active"
value = 0

[[record]]
molecule = "C[C@@H]1C(=O)O[C@H]2C[C@@]34[C@H]5C[C@@H](C(C)(C)C)[C@]36[C@@H](OC(=O)[C@@H]6O)O[C@@]4(C(=O)O5)[C@]21O [Ginkgolide A]"
tested_target = "A549-GM130-SQSTM1"
property_name = "phenotypically active"
value = 0

[[record]]
molecule = "C/N=C(\\NC#N)NCCSCc1nc[nH]c1C"
tested_target = "A549-GM130-SQSTM1"
property_name = "phenotypically active"
value = 0

